test system: PC3-PIP tumor xenografts; test: PET/CT imaging and region of interest analysis in nude mice bearing PC3-PIP tumor xenografts; format: in vivo; conditions: nude mice, region of interest analysis, FIG. 5 legend
observation.type: blood circulation half-life (unit not given) (h)
All answers are understood in h, so give the number only.

// lookup blood circulation half-life (unit not given) | system=PC3-PIP tumor xenografts | key= O=C(O)CCC(NC(=O)NC(CCCCNC(=O)CCCCCCCCCCCCCCCCCc1ccc(NC(=O)CN2CCN(CC(=O)O)CCN(CC(=O)O)CCN(CC(=O)O)CC2)cc1)C(=O)O)C(=O)O (stereo not shown) [^86Y-PSMA-PhC18, metal not drawn] 11.7

----------
experiment: Partition (logP) and distribution (logD) coefficients, hydrophobicity comparison; format: physicochemical; settings: partition coefficient, 177Lu-labeled compound; read-out: LogP
observation.type: LogP

Requested field: LogP. Item: O=C(O)CCC(NC(=O)NC(CCCCNC(=O)CCCCCCCCCCCNC(=O)CN1CCN(CC(=O)O)CCN(CC(=O)O)CCN(CC(=O)O)CC1)C(=O)O)C(=O)O (stereo not shown) [^177Lu-PSMA-C12, metal not drawn] -2.6
